Quick reference: MIC of the listed items.
System: M. massiliense CRM 0019
Experiment Description: MIC, resazurin microtiter assay
Assay type: cell-based
Experimental Parameters: Mycobacteroides abscessus, CRM0019, Mueller Hinton II; read-out: MIC M. massiliense CRM 0019

Compound	Result
CCCCCCCNC(=O)c1cc2ccccc2[nH]1 [Compound 17, N-heptyl-1H-indole-2-carboxamide]	> 32 µg/mL
CCC12CC3CC(C1)CC(NC(=O)c1cc4ccccc4[nH]1)(C3)C2	> 32 µg/mL
O=C(NC1CCCCCCC1)c1cc2ccccc2[nH]1 [Compound 10, N-cyclooctyl-1H-indole-2-carboxamide]	32 µg/mL
Cc1cc(C)c2cc(C(=O)NC3C4CC5CC(C4)CC3C5)[nH]c2c1 (stereo not drawn)	> 32 µg/mL
Cc1cc(C)c2cc(C(=O)N[C@@H]3C[C@@H]4C[C@H]([C@H]3C)C4(C)C)[nH]c2c1	0.125 µg/mL

MIC lookup needed for Cc1cc(C)c2cc(C(=O)NC3CCC(C)CC3)[nH]c2c1 (stereo not drawn) , thanks. ≤ 0.06 µg/mL

Entry to check: CCCCCCCCNC(=O)c1cc2ccccc2[nH]1 [Compound 18, N-octyl-1H-indole-2-carboxamide] > 32 µg/mL

Entry to check: Cc1cc(C)c2cc(C(=O)NC(C)C34CC5CC(CC(C5)C3)C4)[nH]c2c1 (stereo not drawn) 8 µg/mL

Entry to check: CCCCCCCNC(=O)c1cc2c(C)cc(C)cc2[nH]1 > 32 µg/mL

Value source: patent US10383848B2
